System: Candida albicans
experimental.details: In vitro antifungal activity against Candida albicans ATCC 26278.
Format: functional
property.name: MIC (µg/mL)

P: COC(=O)/C=C/C(=O)NC[C@H](NC(=O)[C@H](CCSC)NC(=O)[C@H](CCSC)NC(=O)[C@@H](N)CNC(=O)/C=C/C(=O)OC)C(=O)O
Q: COC(=O)/C=C/C(=O)NC[C@H](NC(=O)[C@H](C)NC(=O)[C@@H](N)CCSC)C(=O)O
R: CCC[C@H](NC(=O)[C@H](CNC(=O)/C=C/C(=O)OC)NC(=O)[C@@H](N)CCC)C(=O)O
Put these in order: smallest MIC first, largest last. Answer format: list of labels, ordered as asked.
R, P, Q
(R: 0.05 µg/mL, P: 0.25 µg/mL, Q: 0.75 µg/mL)

a: COC(=O)/C=C/C(=O)NCC(N)C(=O)N[C@@H](CCSC)C(=O)N[C@@H](CNC(=O)/C=C/C(=O)OC)C(=O)O (stereo partly drawn)
b: CCC[C@H](NC(=O)[C@@H](N)CCCCN)C(=O)N[C@@H](CNC(=O)/C=C/C(=O)OC)C(=O)O
c: COC(=O)/C=C/C(=O)NC[C@H](N)C(=O)N[C@@H](CCSC)C(=O)N[C@@H](C)C(=O)O
Order these by MIC, descending, and give the full ranking. Answer format: list of labels, ordered as asked.
a, c, b
(a: 0.75 µg/mL, c: 0.25 µg/mL, b: 0.025 µg/mL)

I: COC(=O)/C=C/C(=O)NC[C@H](NC(=O)[C@H](CCSC)NC(=O)[C@@H](N)CCSC)C(=O)O
II: COC(=O)/C=C/C(=O)NC[C@H](NC(=O)[C@H](C)N)C(=O)N[C@@H](C)C(=O)O
Between I and II , which one has the lower reported MIC value? Your answer should be the label of the entry you select.
I
(I: 0.25 µg/mL, II: 0.75 µg/mL)
